These data points were gathered from patent US20160220569A1.

test: 14-day oral gavage toxicokinetic study in rats
Format: in vivo
measurement context: male, rat, plasma, po, 5 mg/kg, Mean Compound 1 Plasma Concentration, rats, oral 5 mg/kg, Day 14, 24 h, Male
Procedure: Plasma was obtained from blood samples collected from rats in a composite sampling scheme, with 3 samples collected per sex, per dose, at each target collection time, as illustrated in Table 21 to Table 25. […] The following parameters were determined: […] A value of 0 ng/mL was assigned to all values below the lower limit of quantitation (BLQ, <10.0 ng/mL). […] CL: Clearance (L/h/kg), calculated as the dose divided by AUC(0-t). […] Cmax/Dose: Normalized Cmax, calculated as Cmax divided by total dose. […]

{"structure": "CN1CCN(c2ccc(Nc3ncc4cc5n(c4n3)C3(CCCCC3)CNC5=O)nc2)CC1", "concentration at 24 h": "16.2 ng/mL"}

###

test: 14-day oral gavage toxicokinetic study in rats
Format: in vivo
measurement context: male, rat, plasma, po, 2 mg/kg, oral 2 mg/kg, Study Day 14, Male

{"compound": "CN1CCN(c2ccc(Nc3ncc4cc5n(c4n3)C3(CCCCC3)CNC5=O)nc2)CC1 [Compound 1]", "Cmax": "116 ng/mL"}

###

test: Compound 1 PK dosed Days 1-3 with etoposide and carboplatin
Type: in vivo, human
measurement context: human, plasma, intravenous, 200 mg/m2, 200 mg/m^2 with etoposide and carboplatin; Day 1; mean; read-out: Half-lives averaged (converted)

{"compound": "CN1CCN(c2ccc(Nc3ncc4cc5n(c4n3)C3(CCCCC3)CNC5=O)nc2)CC1 [Compound 1]", "units of measure": "h", "half-life": 8.19}

###

test: 14-day oral gavage toxicokinetic study in rats
Format: in vivo
measurement context: both sexes, rat, plasma, po, 5 mg/kg, oral 5 mg/kg, Study Day 14, Overall; read-out: t½ (converted)
test readout: half-life

{"structure": "CN1CCN(c2ccc(Nc3ncc4cc5n(c4n3)C3(CCCCC3)CNC5=O)nc2)CC1", "result": "4.08 h"}

###

test: 14-day oral gavage toxicokinetic study in rats
Format: in vivo
measurement context: both sexes, rat, plasma, po, 2 mg/kg, Mean Compound 1 Plasma Concentration, rats, oral 2 mg/kg, Day 14, 0.5 h, Overall

{"molecule": "CN1CCN(c2ccc(Nc3ncc4cc5n(c4n3)C3(CCCCC3)CNC5=O)nc2)CC1 [Compound 1]", "units of measure": "µg/mL", "concentration at 0.5 h": 0.0882}

###

test: 14-day oral gavage toxicokinetic study in rats
Type: in vivo
measurement context: both sexes, rat, plasma, po, 2 mg/kg, oral 2 mg/kg, Study Day 1, Overall

{"structure": "CN1CCN(c2ccc(Nc3ncc4cc5n(c4n3)C3(CCCCC3)CNC5=O)nc2)CC1", "AUC(0-t), ng·h/mL": 1730}

###

test: Single escalating dose IV infusion pharmacokinetics in healthy volunteers (noncompartmental)
Assay type: in vivo, human
measurement context: both, human, plasma, intravenous, […]2, Cohort 7, […]^2, N = 12; min-max; read-out: t1/2 (converted)
test readout: half-life

{"structure": "CN1CCN(c2ccc(Nc3ncc4cc5n(c4n3)C3(CCCCC3)CNC5=O)nc2)CC1", "test readout": "half-life", "result": "11.9 to 17.3 h"}

###

test: 14-day oral gavage toxicokinetic study in rats
Type: in vivo
measurement context: male, rat, plasma, po, 2 mg/kg, Mean Compound 1 Plasma Concentration, rats, oral 2 mg/kg, Day 14, 12 h, Male

{"molecule": "CN1CCN(c2ccc(Nc3ncc4cc5n(c4n3)C3(CCCCC3)CNC5=O)nc2)CC1 [Compound 1]", "units of measure": "ng/mL", "concentration at 12 h": 54}
